target: WWP1 (His-tagged WWP1-L34H) (Homo sapiens); construct: WWP1- 2,3-linker-WW3-WW4-HECT (WWP1-L34H); made in house; host or cells: E. coli BL21-CodonPlus RP (plasmid pET32a-WWP1-L34H, gift of Dr Wenyu Wen); assay: in vitro autoubiquitination assay (single shot and dose dependency), WWP1; type: biochemical; conditions: single shot, compound at 1 mM (1% DMSO), standardized to 0 and 100% controls
observable: WWP1 RA (%) relative activity
Numbers only, in %.

These solved cases illustrate the format of a correct answer.
O=S(=O)(c1ccc(C(F)(F)F)cc1)n1cc(CO)c2ccccc21
22.5
c1ccc2c(Cc3c[nH]c4ccccc34)c[nH]c2c1
17.2
Cc1ccc(S(=O)(=O)n2cc(CO)c3ccccc32)cc1
11.4

# context switch: different compound, same WWP1 RA (%) relative activity
For OCc1cn(Cc2ccccc2)c2ccccc12 the compound record lists WWP1 RA (%) relative activity as 105.9

---

biological target: WWP1 (His-tagged WWP1-L34H) (Homo sapiens, UniProt Q9H0M0); construct: WWP1- 2,3-linker-WW3-WW4-HECT (WWP1-L34H); test: in vitro autoubiquitination assay (single shot and dose dependency), WWP1; details: nonlinear regression of RA against log concentration, 1 mM to 10 nM, 1% DMSO
Sequence (Q9H0M0 415-922, stated change not applied): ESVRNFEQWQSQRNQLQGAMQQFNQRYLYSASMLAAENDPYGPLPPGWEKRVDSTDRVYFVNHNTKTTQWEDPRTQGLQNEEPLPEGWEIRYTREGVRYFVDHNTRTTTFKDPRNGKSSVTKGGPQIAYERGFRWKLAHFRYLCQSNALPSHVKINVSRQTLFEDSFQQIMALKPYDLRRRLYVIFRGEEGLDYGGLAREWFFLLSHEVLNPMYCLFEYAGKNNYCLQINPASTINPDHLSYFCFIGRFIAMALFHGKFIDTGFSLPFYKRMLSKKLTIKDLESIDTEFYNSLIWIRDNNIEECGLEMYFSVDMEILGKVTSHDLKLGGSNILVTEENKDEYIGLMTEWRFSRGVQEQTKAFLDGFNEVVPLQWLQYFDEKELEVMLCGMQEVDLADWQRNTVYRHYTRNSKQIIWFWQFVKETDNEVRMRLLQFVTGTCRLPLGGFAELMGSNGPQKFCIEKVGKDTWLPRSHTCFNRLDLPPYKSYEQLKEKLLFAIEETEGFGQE
Please go through the items and note down their IC50.
One number for each entry, in µM.

These solved cases illustrate the format of a correct answer.
Cc1ccc(S(=O)(=O)n2cc(CO)c3ccccc32)cc1
218
O=S(=O)(c1ccc(C(F)(F)F)cc1)n1cc(CO)c2ccccc21
799

# context switch: different molecule, same IC50
With WWP1 (His-tagged WWP1-L34H) (Homo sapiens, UniProt Q9H0M0) as the test system, c1ccc2c(Cc3c[nH]c4ccccc34)c[nH]c2c1 showed IC50 of 111
